Target: T1, cIL2Rg-Fc (lot#P210115SV5) (cynomolgus, UniProt A0A2K5VGJ6 23-262)
T1 construct: Named only by lot number; also called cynomolgus IL2Rg-Fc; not shown: Fc of the fusion protein
T1 sequence: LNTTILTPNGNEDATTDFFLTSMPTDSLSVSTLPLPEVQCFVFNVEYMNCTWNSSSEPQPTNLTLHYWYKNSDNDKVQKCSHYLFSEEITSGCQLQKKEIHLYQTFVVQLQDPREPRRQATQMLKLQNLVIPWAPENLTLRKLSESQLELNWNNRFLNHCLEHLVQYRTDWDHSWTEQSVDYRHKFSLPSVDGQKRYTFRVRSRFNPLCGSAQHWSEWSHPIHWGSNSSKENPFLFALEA
Assay: SPR (Biacore T200), Fc-fused ligand captured on chip, dual VHH as analyte, 1:1 Langmuir fit
assay metric: koff (s⁻¹)
Your answer should be a plain number; it is taken to be in s⁻¹.

binder | koff [s⁻¹]
DR468(DR240-DR234) (bispecific antibody, Anti-hIL10Ra/hIL2Rg dual VHH with ASH6 handle; also called G8) QVQLQESGGGSVQAGGSLRLSCGASGYTYSSYCMGWFRQVPGKEREGVAVIDSDGSTSYADSVKGRFTISKDNGKNTLYLQMNSLKPEDTAMYYCAADLGHYRPPCGVLYLGMDYWGKGTQVTVSSGGGSQVQLQESGGGSVQAGGSLRLSCVASGYTFSSYCMGWFRQAPGKEREGVAALGGGSTYYADSVKGRFTISQDNAKNTLYLQMNSLKPEDTAMYYCAAAWVACLEFGGSWYDLARYKHWGQGTQVTVSSASHHHHHH | 0.001

Recorded koff (binder DR437(DR235-DR233) (bispecific antibody, Anti-hIL10Ra/hIL2Rg dual VHH with ASH6 handle; also called D6) QVQLQESGGGSVQAGGSLRLSCAASRYLYSIDYMAWFRQSPGKEREPVAVIYTASGATFYPDSVKGRFTISQDNAKMTVYLQMNSLKSEDTAMYYCAAVRKTDSYLFDAQSFTYWGQGTQVTVSSGGGSQVQLQESGGGSVQAGGSLRLSCTASGFTFDDSDMGWYRQAPGNECELVSTISSDGSTYYADSVKGRFTISQDNAKNTVYLQMNSLKPEDTAVYYCAAEPRGYYSNYGGRRECNYWGQGTQVTVSSASHHHHHH ): 0.0022

Recorded koff (binder DR392(DR229-DR236) (bispecific antibody, Anti-hIL10Ra/hIL2Rg dual VHH with ASH6 handle; also called A7) QVQLQESGGGLVQPGGSLRLSCTASGFSFSSYPMTWARQAPGKGLEWVSTIASDGGSTAYAASVEGRFTISRDNAKSTLYLQLNSLKTEDTAMYYCTKGYGDGTPAPGQGTQVTVSSGGGSQVQLQESGGGSVQAGGSLRLSCAASRFTYSSYCMGWFRQAPGKEREGVASIDSDGSTSYTDSVKGRFTISKDNAKNTLYLQMNSLKPEDTAMYYCALDLMSTVVPGFCGFLLSAGMDYWGKGTQVTVSSASHHHHHH ): 0.004

Recorded koff (binder DR395(DR229-DR239) (bispecific antibody, Anti-hIL10Ra/hIL2Rg dual VHH with ASH6 handle; also called A2) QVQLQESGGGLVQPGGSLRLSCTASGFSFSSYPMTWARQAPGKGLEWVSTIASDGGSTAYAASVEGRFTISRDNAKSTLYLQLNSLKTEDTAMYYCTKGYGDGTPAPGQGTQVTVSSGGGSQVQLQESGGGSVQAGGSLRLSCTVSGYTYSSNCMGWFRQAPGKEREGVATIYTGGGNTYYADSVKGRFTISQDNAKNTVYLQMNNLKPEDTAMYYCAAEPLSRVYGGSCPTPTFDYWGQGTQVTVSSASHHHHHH ): 0.0026
